- Method notes: UV spectroscopy binding between compounds: binding to methadone
- Condition context: pH 7.4 sodium phosphate buffer, read-out: Kd @ 200 nm, binding to Meth
Listed here are compounds together with their documented Kd.

smiles_record=N[C@@H](Cc1ccccc1)C(=O)O recorded_value="> 1000 µM"

// recorded Kd for COc1cc(CC(=O)O)ccc1O : > 1000 µM

// recorded Kd for NCCc1c[nH]cn1 : > 1000 µM

---

- Experimental system: insulin receptor (INSR) 281–299 (Homo sapiens, UniProt P06213)
- Construct: INSR 281–299
- Method notes: UV spectroscopy binding to control peptide INSR 281–299
- Condition context: control sequence; read-out: Kd @ 200 nm, INSR 281–299
pKd: −log10 of the molar value.
Listed here are molecules together with their documented pKd.

Worked examples follow.
molecule="NCCc1c[nH]cn1 [Histamine]" recorded_value="< 3.00"
molecule="CSCC[C@H](NC(=O)[C@H](Cc1ccccc1)NC(=O)CNC(=O)CNC(=O)[C@@H](N)Cc1ccc(O)cc1)C(=O)O [Methionine-Enkephalin, methionine-enkephalin]" recorded_value="< 3.00"

// recorded pKd for C=CCN1CC[C@]23c4c5ccc(O)c4O[C@H]2C(=O)CC[C@@]3(O)[C@H]1C5 [Naloxone, naloxone] : < 3.00
